- run.description: Normal 1 Cell Viability Secondary Assay for qHTS Assay for Epigenetic Modulators
- experimental.context: Normal 1 bronchial epithelial viability, MTS, 4 d
Results filed as inconclusive are left out. Activity calls are given as the source filed them. Calls follow the shape of the full dose curve.
// allowed return values: active, inactive

For orientation, consider the following solved cases.
[[record]]
compound = "CC(C)C(=O)NC(c1ccc(N(C)C)cc1)c1ccc2cccnc2c1O (configuration not stated)"
class_assignment = "active"

[[record]]
compound = "CN1C(=S)SC(c2ccccc2)N(C)C1c1ccccc1 (configuration not stated)"
class_assignment = "inactive"

[[record]]
compound = "CC(C)C(=O)NC(c1ccco1)c1ccc2cccnc2c1O (configuration not stated)"
class_assignment = "active"


Enquiry: In this assay, the call recorded for CC(C)C(=O)NC(c1ccco1)c1cc([N+](=O)[O-])c2cccnc2c1O (configuration not stated) was what?
Return: active

Enquiry: In this assay, the call recorded for CC(/C=C/C(=O)NO)=C\[C@@H](C)C(=O)c1ccc(N(C)C)cc1 was what?
Return: active

Enquiry: In this assay, the call recorded for O=Nc1ccc(O)c2ncccc12 was what?
Return: active

Enquiry: In this assay, the call recorded for O=C(CSc1cccc2cccnc12)NCc1ccccc1 was what?
Return: inactive
